- Tested on: 855422-203-R-J1-PDC spheroids with HUVEC/MSC, viability
- protocol.notes: Anticancer human tumor 855422-203-R-J1-PDC patient-derived bladder carcinoma cell line growth inhibition [PI3K]
- condition.context: curve of first compound; second compound 0.1 µM
measured.quantity: pIC50
Units for pIC50: none; it is -log10 of a concentration expressed in mol/L.

Consider the compound CC(C)n1nc(-c2ccc3oc(N)nc3c2)c2c(N)ncnc21 + CC(Nc1ccc2c(c1)OCCn1cc(N3C(=O)OCC3C(F)F)nc1-2)C(N)=O and give its measured pIC50.
7.57

Consider the compound CC1(C)CCC(CN2CCN(c3ccc(C(=O)NS(=O)(=O)c4ccc(NCC5CCOCC5)c([N+](=O)[O-])c4)c(Oc4cnc5[nH]ccc5c4)c3)CC2)=C(c2ccc(Cl)cc2)C1 + CC(Nc1ccc2c(c1)OCCn1cc(N3C(=O)OCC3C(F)F)nc1-2)C(N)=O and give its measured pIC50.
5.33

Consider the compound CC1(C)CCC(CN2CCN(c3ccc(C(=O)NS(=O)(=O)c4ccc(NCC5CCOCC5)c([N+](=O)[O-])c4)c(Oc4cnc5[nH]ccc5c4)c3)CC2)=C(c2ccc(Cl)cc2)C1 + Cc1nc(NC(=O)N2CCCC2C(N)=O)sc1-c1ccnc(C(C)(C)C(F)(F)F)c1 and give its measured pIC50.
5.31

Consider the compound CC(C)NCC(C(=O)N1CCN(c2ncnc3c2C(C)CC3O)CC1)c1ccc(Cl)cc1 (stereo not given) + CC(Nc1ncnc2nc[nH]c12)c1cc2cccc(Cl)c2c(=O)n1-c1ccccc1 and give its measured pIC50.
5.95

---

- Test system: 855422-203-R-J1-PDC spheroids with HUVEC/MSC, viability
- protocol.notes: Anticancer human tumor 855422-203-R-J1-PDC cell line growth inhibition [PI3K];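 further: agents incubated with spheroids for one week before read-out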;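 on viability, T/C: 100% = DMSO vehicle-treated control wells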
- condition.context: second compound 0.01 µM; first compound 0.01 µM; stronger effect = lower value
Threshold-based label: viability, T/C under 90% gives class 1, viability, T/C not under 90% gives class 0.

Answer whether the molecule CC(C)n1nc(-c2ccc3oc(N)nc3c2)c2c(N)ncnc21 + CC(Nc1ccc2c(c1)OCCn1cc(N3C(=O)OCC3C(F)F)nc1-2)C(N)=O has viability, T/C strictly less than 90%
class 1

Answer whether the molecule Cn1ncnc1[C@H]1c2n[nH]c(=O)c3cc(F)cc(c23)N[C@@H]1c1ccc(F)cc1 + COc1c(OCCCN2CCOCC2)ccc2c3n(c(=NC(=O)c4cnc(N)nc4)nc12)CCN3 has viability, T/C strictly less than 90%
class 0

Answer whether the molecule CC(=O)c1c(C)c2cnc(Nc3ccc(N4CCNCC4)cn3)nc2n(C2CCCC2)c1=O + CC(Nc1ccc2c(c1)OCCn1cc(N3C(=O)OCC3C(F)F)nc1-2)C(N)=O has viability, T/C strictly less than 90%
class 1

Answer whether the molecule CC(C)n1nc(-c2ccc3oc(N)nc3c2)c2c(N)ncnc21 + COc1c(OCCCN2CCOCC2)ccc2c3n(c(=NC(=O)c4cnc(N)nc4)nc12)CCN3 has viability, T/C strictly less than 90%
class 1

Answer whether the molecule CC(=O)c1c(C)c2cnc(Nc3ccc(N4CCNCC4)cn3)nc2n(C2CCCC2)c1=O + COc1c(OCCCN2CCOCC2)ccc2c3n(c(=NC(=O)c4cnc(N)nc4)nc12)CCN3 has viability, T/C strictly less than 90%
class 1

Answer whether the molecule Cn1ncnc1[C@H]1c2n[nH]c(=O)c3cc(F)cc(c23)N[C@@H]1c1ccc(F)cc1 + CC(Nc1ccc2c(c1)OCCn1cc(N3C(=O)OCC3C(F)F)nc1-2)C(N)=O has viability, T/C strictly less than 90%
class 0

Answer whether the molecule CCN1CCN(Cc2ccc(Nc3ncc(F)c(-c4cc(F)c5nc(C)n(C(C)C)c5c4)n3)nc2)CC1 + CC(Nc1ccc2c(c1)OCCn1cc(N3C(=O)OCC3C(F)F)nc1-2)C(N)=O has viability, T/C strictly less than 90%
class 1
